Can you tell me pIC50 for the items I'm about to list?
target: Human PD-L1/PD-1 (Homo sapiens, UniProt Q9NZQ7); construct: made in house; host or cells: HEK293T; test: HTRF PD-1-Ig/PD-L1-His binding assay (human PD-L1); details: Table 8, Compound No. 1 variant macrocyclic peptides; read-out: HTRF Human PD-L1/PD-1 Binding Assay IC50
Sequence (Q9NZQ7 with tags, fused parts or gaps): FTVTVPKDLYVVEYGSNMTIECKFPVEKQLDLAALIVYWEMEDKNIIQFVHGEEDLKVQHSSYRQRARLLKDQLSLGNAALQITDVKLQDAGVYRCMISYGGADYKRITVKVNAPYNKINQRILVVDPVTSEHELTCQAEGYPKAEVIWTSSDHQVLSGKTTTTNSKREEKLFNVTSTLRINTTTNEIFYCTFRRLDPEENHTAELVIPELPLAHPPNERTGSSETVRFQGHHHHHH
Positions of bridges follow the written chain, without caps; N, C: chain ends. Non-standard residues stand in square brackets, D forms with d. Residues, ends and D or L forms follow the SMILES beside them. ξ: configuration not given here. Bta = N[C@@H](Cc1csc2ccccc12)C(=O)O; NMeNle = CCCC[C@H](NC)C(=O)O; NMeA = CN[C@@H](C)C(=O)O; ξNMeA = CNC(C)C(=O)O; ξAze = O=C(O)C1CCN1; ξP = O=C(O)C1CCCN1; Sar = CNCC(=O)O
Worth noting: pIC50 values are minus log10 of concentrations stated in mol/L.

Query: What value of pIC50 has been recorded for this entry: CCCC[C@H]1C(=O)N(C)[C@@H](CCCC)C(=O)N[C@@H](CCCNC(=N)N)C(=O)N[C@H](C(=O)NCC(N)=O)CSCC(=O)N[C@@H](Cc2ccccc2)C(=O)N(C)[C@@H](C)C(=O)N[C@@H](CC(N)=O)C(=O)N2CCCC2C(=O)N[C@@H](Cc2cnc[nH]2)C(=O)N[C@@H](CC(C)C)C(=O)N(C)CC(=O)N[C@@H](Cc2c[nH]c3ccccc23)C(=O)N[C@@H](CO)C(=O)N[C@@H](Cc2c[nH]c3ccccc23)C(=O)N1C (stereo partly shown) [Compound No. 1] ({CH2CO}-F[NMeA]N[ξP]HL[Sar]WSW[NMeNle][NMeNle]RCG-NH2; thioether N-14)
Response: 8.05

Query: What value of pIC50 has been recorded for this entry: CCCC[C@H]1C(=O)N(C)[C@@H](CCCC)C(=O)N[C@@H](CCCNC(=N)N)C(=O)N[C@H](C(=O)NCC(N)=O)CSCC(=O)N[C@@H](Cc2ccccc2)C(=O)N(C)[C@@H](C)C(=O)N[C@@H](CC(N)=O)C(=O)N2CCC2C(=O)N[C@@H](Cc2cnc[nH]2)C(=O)N[C@@H](CC(C)C)C(=O)N(C)CC(=O)N[C@@H](Cc2c[nH]c3ccccc23)C(=O)N[C@@H](CO)C(=O)N[C@@H](Cc2c[nH]c3ccccc23)C(=O)N1C (stereo partly shown) [Compound No. 50] ({CH2CO}-F[NMeA]N[ξAze]HL[Sar]WSW[NMeNle][NMeNle]RCG-NH2; thioether N-14)
Response: 7.15

Query: What value of pIC50 has been recorded for this entry: CCCC[C@H]1C(=O)N(C)[C@@H](CCCC)C(=O)N[C@@H](CCCNC(=N)N)C(=O)N[C@H](C(=O)NCC(N)=O)CSCC(=O)N[C@@H](Cc2ccccc2)C(=O)N(C)C(C)C(=O)N[C@@H](CC(N)=O)C(=O)N2CCC[C@H]2C(=O)N[C@@H](Cc2cnc[nH]2)C(=O)N[C@@H](CC(C)C)C(=O)N[C@@H](Cc2cnc[nH]2)C(=O)N[C@@H](Cc2c[nH]c3ccccc23)C(=O)N[C@@H](CO)C(=O)N[C@@H](Cc2c[nH]c3ccccc23)C(=O)N1C (stereo partly shown) [Compound No. 53] ({CH2CO}-F[ξNMeA]NPHLHWSW[NMeNle][NMeNle]RCG-NH2; thioether N-14)
Response: 7.47

Query: What value of pIC50 has been recorded for this entry: CCCC[C@H]1C(=O)N(C)[C@@H](CCCC)C(=O)N[C@@H](CCCNC(=N)N)C(=O)N[C@H](C(=O)NCC(N)=O)CSCC(=O)N[C@@H](Cc2ccccc2)C(=O)N(C)[C@@H](C)C(=O)N[C@@H](CC(N)=O)C(=O)N2CCC[C@H]2C(=O)N[C@@H](Cc2cnc[nH]2)C(=O)N[C@@H](CC(C)C)C(=O)N(C)CC(=O)N[C@@H](Cc2c[nH]c3ccccc23)C(=O)N[C@@H](CO)C(=O)N[C@@H](Cc2csc3ccccc23)C(=O)N1C [Compound No. 64] ({CH2CO}-F[NMeA]NPHL[Sar]WS[Bta][NMeNle][NMeNle]RCG-NH2; thioether N-14)
Response: 8.15

The reported numbers originate from patent US9850283B2.
